These entries and their values trace back to patent US7442693B2.

Target: human MC1R (Homo sapiens)
Construct: expressed in transfected cells; host or cells: CHO-6xCRE-luc+ reporter cell line
Sequence (Q01726 whole entry): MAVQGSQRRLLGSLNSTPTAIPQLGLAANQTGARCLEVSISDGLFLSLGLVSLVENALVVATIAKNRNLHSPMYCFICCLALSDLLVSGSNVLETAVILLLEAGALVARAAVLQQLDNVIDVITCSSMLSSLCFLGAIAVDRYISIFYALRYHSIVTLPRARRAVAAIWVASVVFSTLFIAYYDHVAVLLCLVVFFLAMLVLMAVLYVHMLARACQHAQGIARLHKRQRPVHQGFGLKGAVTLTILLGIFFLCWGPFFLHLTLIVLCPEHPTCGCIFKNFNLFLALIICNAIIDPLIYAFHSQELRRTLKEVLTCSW
Assay: CHO-6xCRE-luc+ reporter gene assay, MC1R agonist activity
Format: cell-based
Settings: 4 h, percentage of the fold stimulation in the NDP-αMSH control (1×10^−7 M), human MC1R; read-out: % of MSH
Observable: Emax (%)

CC(C)N(C(=O)CN1C=CN(c2ccccc2)C(=O)C(Cc2n[nH]c3ccccc23)C1=O)c1ccc(C(F)(F)F)cc1 (centres unmarked) [Example 11] = 68
CC(C)N(C(=O)CN1C=CN(c2ccccc2)C(=O)C(Cc2n[nH]c3ccccc23)C1=O)c1ccc(I)cc1 (centres unmarked) [Example 10] = 84
O=C1C(Cc2n[nH]c3ccccc23)C(=O)N(c2ccccc2)C=CN1CC(=O)N1CCCCc2ccccc21 (single isomer, unassigned) [Example 18] = 87
CC(C)N(C(=O)CN1C=CN(c2ccccc2)C(=O)C(Cc2n[nH]c3ccccc23)C1=O)c1ccc(OC(F)(F)F)cc1 (centres unmarked) [Example 6] = 91
COc1ccc(N(C(=O)CN2C=CN(c3ccccc3)C(=O)C(Cc3n[nH]c4ccccc34)C2=O)C(C)C)cc1 (single isomer, unassigned) [Example 2] = 85
